Assay: physchem
Format: physicochemical
Record form. Attribute: logP. Fill in for each entry.

Solved cases (3 shown):
{"INPUT_SMILES": "Cn1nc(C2CC2)c(C(F)(F)F)c1C(=O)Nc1ccc(Cl)c(C(=O)NC2CC2)c1", "TEST_READOUT": "logP", "OBSERVED_MEASUREMENT": "2.78^a)"}
{"INPUT_SMILES": "O=C(NCC=CCl)c1cc(NC(=O)c2cnc(C(F)(F)C(F)(F)C(F)(F)F)nc2C(F)(F)F)ccc1Cl", "TEST_READOUT": "logP", "OBSERVED_MEASUREMENT": "3.92^a)"}
{"INPUT_SMILES": "Cn1nc(C(F)(F)C(F)(F)F)c(C(F)(F)F)c1C(=O)Nc1cc(F)c(Cl)c(C(=O)NCC(F)(F)F)c1", "TEST_READOUT": "logP", "OBSERVED_MEASUREMENT": "3.91^a)"}

# evaluate next
Query (compound): Cc1nc(C(F)(F)F)ncc1C(=O)Nc1ccc(Cl)c(C(=O)NC2CC2)c1 ; field requested: logP 2.24v

====

Assay: physchem
Assay type: physicochemical
TEST_READOUT: logP

# count of solved cases: 3
{"COMPOUND": "Cn1nc(C(F)(F)C(F)(F)F)c(C(F)(F)F)c1C(=O)Nc1cccc(C(=O)NCc2ccccc2)c1 [Ik-14]", "logP": "3.77^a)"}
{"COMPOUND": "CN(C)C(=O)COC(=O)c1cc(NC(=O)c2c(C(F)(F)F)c(C(F)(F)C(F)(F)F)nn2C)ccc1Cl [Ik-108]", "logP": "3.57^a)"}
{"COMPOUND": "CCc1c(C(F)(F)C(F)(F)F)nn(C)c1C(=O)Nc1cccc(C(=O)NC2CC2)c1 [Ik-263]", "logP": "3.05^a)"}

# evaluate next
Recorded logP for O=C(NCC=CCl)c1cc(NC(=O)c2nccc(C(F)(F)F)c2Cl)ccc1Cl [Ie-4] , please? 2.92^a)

====

Assay: log P from HPLC-MS, no method note printed
Type: physicochemical
Conditions: method not given
Give chromatographic logP for every item shown.
Numbers only.

Worked set:
{"INPUT_SMILES": "Cc1nc(C(N)=O)c(C(F)(F)F)c(C(F)(F)C(F)(F)F)n1", "chromatographic logP": 2.33}
{"INPUT_SMILES": "Cn1nc(OCC(F)(F)F)cc1C(=O)O", "chromatographic logP": 1.65}
{"INPUT_SMILES": "Cn1nc(OC(F)F)c(Cl)c1C(=O)O", "chromatographic logP": 1.5}
{"INPUT_SMILES": "O=C(O)c1cnc(C(F)(F)F)nc1-c1ccccn1", "chromatographic logP": 1.5}
{"INPUT_SMILES": "Cn1nc(OC(F)F)cc1C(=O)O", "chromatographic logP": 1.15}
{"INPUT_SMILES": "COC(=O)c1cc(OC(F)F)nn1C", "chromatographic logP": 2.04}
{"INPUT_SMILES": "COC(=O)c1c(Br)c(OCC(F)(F)F)nn1C", "chromatographic logP": 3.14}
{"INPUT_SMILES": "COC(=O)c1c(F)c(OCC(F)(F)F)nn1C", "chromatographic logP": 2.79}

Hi team, please reply with chromatographic logP for each item in this list.
1. COC(=O)c1cc(OCC(F)(F)F)nn1C
2. CCOC(=O)c1cnc(C(F)(F)F)nc1-c1ccccn1

[2.61, 3.09]

Quick batch: chromatographic logP for everything below.
1. COC(=O)c1c(Cl)c(OCC(F)(F)F)nn1C
2. CCOC(=O)c1c(C(F)(F)F)c(C(C)(C)O)nn1C
3. Cn1nc(C2CC2)c(C(F)(F)F)c1C(=O)O

3.08
2.33
1.74

====

Assay: log P from HPLC-MS, no method note printed
Format: physicochemical
Details: method not given
TEST_READOUT: chromatographic logP

Record excerpt, results attached:
{"MOLECULE": "CCOC(=O)c1c(C(F)(F)F)c(C2CC2)nn1C", "chromatographic logP": 3.66}
{"MOLECULE": "COC(=O)c1c(I)c(OCC(F)(F)F)nn1C", "chromatographic logP": 3.17}
{"MOLECULE": "CCOC(=O)c1c(C(F)(F)F)c(C(C)(C)F)nn1C", "chromatographic logP": 3.55}
{"MOLECULE": "Cn1nc(OCC(F)(F)F)c(I)c1C(=O)O", "chromatographic logP": 2.11}

For the 5 molecules below, give their chromatographic logP values.
1. COC(=O)c1c(Br)c(OC(F)F)nn1C
2. Cn1nc(OCC(F)(F)F)c(Br)c1C(=O)O
3. CCOC(=O)c1c(C(F)(F)F)c(C(O)C2CC2)nn1C (stereo not shown)
4. Cn1nc(OCC(F)(F)F)c(Cl)c1C(=O)O
5. Cn1nc(OCC(F)(F)F)c(F)c1C(=O)O

1: 2.62; 2: 2.03; 3: 2.38; 4: 2; 5: 1.83

====

Test: logP by HPLC on a C18 phase inversion column, EEC Directive 79/831 Annex V.A8, method a) (Agilent 1100, 10-95% acetonitrile in 4.25 min)
Assay type: physicochemical
Settings: HPLC phase inversion (reversed-phase) C18 column, HPLC method a), eluent acetonitrile/water with formic acid; read-out: logP
Kindly supply the reported chromatographic logP values for the records listed here.
Numbers only.

The cases that follow already have their chromatographic logP on record.
{"COMPOUND": "O=C(NC1CC1)c1cc(NC(=O)c2cnc(OCC(F)(F)F)nc2C(F)(F)F)ccc1Cl", "chromatographic logP": 2.76}
{"COMPOUND": "Cc1nc(C(F)(F)F)ncc1C(=O)O", "chromatographic logP": 1.26}
{"COMPOUND": "Cn1nc(C(F)(F)C(F)(F)F)c(C(F)(F)F)c1C(=O)Nc1cc(C(=O)O)c(Cl)cn1", "chromatographic logP": 2.82}
{"COMPOUND": "Cn1nc(C(F)(F)F)c(C(F)(F)F)c1C(=O)O", "chromatographic logP": 1.47}
{"COMPOUND": "Cn1cc(Br)c(C(F)(Cl)C(F)(F)F)n1 (stereo not drawn)", "chromatographic logP": 3.17}

Give measured chromatographic logP for every item shown.
1. Cc1nc(C(=O)Nc2ccc(Cl)c(C(=O)NC3CC3)c2)c(C(F)(F)F)c(C(F)(F)C(F)(F)F)n1
2. Cn1nc(C(F)(F)C(F)(F)F)c(I)c1C(=O)Nc1ccc(Cl)c(C(=O)NC2CC2)c1
3. COC(=O)c1cc(NC(=O)c2c(C(F)(F)F)c(C(F)(F)C(F)(F)F)nn2C)cnc1Cl
4. Cn1nc(C(F)(Cl)C(F)(F)F)c(Br)c1C(=O)O (stereo not drawn)

1. 3.33
2. 3.16
3. 3.7
4. 2.43

Give chromatographic logP for each listed item.
1. CCOC(=O)c1cnc(C(F)(F)C(F)(F)F)nc1C(F)F
2. O=C(NC1CC1)c1cc(NC(=O)c2cnc(Cl)nc2C(F)(F)F)ccc1Cl
3. Cn1nc(C(F)(F)C(F)(F)F)c(C(F)(F)F)c1C(=O)Nc1cc(C(=O)N[C@@H]2C[C@@H]2F)c(Br)cn1

3.42
2.36
3.19

====

Assay: logP by HPLC on a C18 phase inversion column, EEC Directive 79/831 Annex V.A8, method b) (HP1100, 5-95% acetonitrile in 1.70 min)
Assay type: physicochemical
Conditions: HPLC method b)
TEST_READOUT: logP

Would you please look over these solved cases?
{"MOLECULE": "Cn1cc(C(F)(F)F)nc1C(NC(=O)c1cc(NC(=O)c2c(C(F)(F)F)c(C(F)(F)C(F)(F)F)nn2C)ccc1Cl)C(F)(F)F (stereo not shown)", "OBSERVED_MEASUREMENT": "4.00^b)"}
{"MOLECULE": "Cn1nc(C(F)(F)C(F)(F)F)c(C(F)(F)F)c1C(=O)Nc1ccc(Cl)c(C(=O)NC(C)(C)C=C(Cl)Cl)c1", "OBSERVED_MEASUREMENT": "4.28^b)"}

Here are 7 molecules. What values of logP were reported for them?
1. Cn1nc(C(F)(F)C(F)(F)F)c(C(F)(F)F)c1C(=O)Nc1ccc(Cl)c(C(=O)NCCC(F)(F)F)c1
2. Cn1nc(C(F)(F)C(F)(F)F)c(C(F)(F)F)c1C(=O)Nc1ccc(Cl)c(C(=O)NCc2cccc(F)c2)c1
3. Cn1nc(C(F)(F)C(F)(F)F)c(C(F)(F)F)c1C(=O)Nc1ccc(Cl)c(C(=O)NC2(C(F)(F)F)CC2)c1
4. Cn1nc(C(F)(F)C(F)(F)F)c(C(F)(F)F)c1C(=O)Nc1ccc(Cl)c(C(=O)NCc2ccccc2Cl)c1
5. Cn1nc(C(F)(F)C(F)(F)F)c(C(F)(F)F)c1C(=O)Nc1ccc(Cl)c(C(=O)NCc2ccccc2F)c1
6. Cc1c(C(F)(F)C(F)(F)F)nn(C)c1C(=O)Nc1ccc(Cl)c(C(=O)NCc2ccccc2)c1
7. Cn1nc(C(F)(F)C(F)(F)F)c(C(F)(F)F)c1C(=O)Nc1ccc(Cl)c(C(=O)NCc2ccncc2)c1

3.53^b)
3.78^b)
3.58^b)
4.05^b)
3.73^b)
3.42^b)
1.93^b)

Cited source: patent US8946234B2
